- Assay Name: Prodrug in vitro metabolism, rat plasma
- Assay type: in vitro ADME
- Condition Info: 2.0 μM substrate, no cofactors, 37° C.
- Description: The stabilities of prodrugs were evaluated in one or more in vitro systems using a variety of preparations following methods known in the art. Tissues and/or preparations were obtained from commercial sources (e.g., Pel-Freez Biologicals, Rogers, Ark., or GenTest Corporation, Woburn, Mass.). […] Samples were then centrifuged and analyzed by LC/MS/MS. Stability of prodrugs towards specific enzymes (e.g., peptidases, etc.) were also assessed in vitro by incubation with the purified enzyme: […]
Experimental Endpoint: Percent of Prodrug Remaining after 60 min. (%)

{"columns": ["Compound", "Experimental Result"],
 "data": [
  ["CP(=O)(O)CCCNC(=O)OCOC(=O)c1ccccc1", 100],
  ["CC(C)C(=O)OC(OC(=O)NCCCP(C)(=O)O)C(C)C (centres unmarked)", 38]
]}

P: CC(OC(=O)NCCCP(C)(=O)O)OC(=O)C1CCCCC1 (centres unmarked)
Q: CC(OC(=O)NCCCP(C)(=O)O)OC(=O)C(C)C (centres unmarked)
R: CC(C)C(=O)OCOC(=O)NCCCP(C)(=O)O
Arrange the 3 compounds by rising Percent of Prodrug Remaining after 60 min., starting with the smallest. Give your ranking as a list of the labels in the requested order. R, Q, P
(R: 7%, Q: 40%, P: 98%)

----------
- Assay Name: Prodrug in vitro metabolism, human plasma
- Type: in vitro ADME
- Condition Info: 2.0 μM substrate, no cofactors, 37° C.
Experimental Endpoint: Percent of Prodrug Remaining after 60 min. (%)

Examples with answers:
{"columns": ["Compound", "Experimental Result"],
 "data": [
  ["CP(=O)(O)CCCNC(=O)OCOC(=O)c1ccccc1", 78],
  ["CC(OC(=O)NCCCP(C)(=O)O)OC(=O)C(C)C (centres unmarked)", 84],
  ["CC(OC(=O)NCCCP(C)(=O)O)OC(=O)C1CCCCC1 (centres unmarked)", 97]
]}

1: CC(C)C(=O)OC(OC(=O)NCCCP(C)(=O)O)C(C)C (centres unmarked)
2: CC(C)C(=O)OCOC(=O)NCCCP(C)(=O)O
Of the pair 1 and 2 , name the member with the lesser recorded Percent of Prodrug Remaining after 60 min.. # respond with the chosen item's label 2
(2: 30%, 1: 77%)

----------
- Assay Name: Prodrug in vitro metabolism, rat liver S9
- Assay type: in vitro ADME
- Condition Info: Rat Liver S9 (0.5 mg/mL), 2.0 μM substrate, NADPH, 37° C.
Experimental Endpoint: Percent of Prodrug Remaining after 60 min. (%)

Some solved entries appear below for comparison.
{"columns": ["Molecule", "Unit Text", "Experimental Result"],
 "data": [
  ["CC(C)C(=O)OC(OC(=O)NCCCP(C)(=O)O)C(C)C (centres unmarked)", "%", 63],
  ["CC(C)C(=O)OCOC(=O)NCCCP(C)(=O)O", "%", 67],
  ["CP(=O)(O)CCCNC(=O)OCOC(=O)c1ccccc1", "%", 85]
]}

P: CC(OC(=O)NCCCP(C)(=O)O)OC(=O)C(C)C (centres unmarked)
Q: CC(OC(=O)NCCCP(C)(=O)O)OC(=O)C1CCCCC1 (centres unmarked)
Between these two entries, P and Q , state which has the higher Percent of Prodrug Remaining after 60 min.. # answer = label of selected item P

----------
- Assay Name: Caco-2 homogenate S9 stability
- Assay type: in vitro ADME
- Condition Info: Caco-2 S9 (0.5 mg protein per mL), 5 μM prodrug, 37° C.
- Experimental: Caco-2 Homogenate S9 Stability: Caco-2 cells were grown for 21 days prior to harvesting. Culture medium was removed and cell monolayers were rinsed and scraped off into ice-cold 10 mM sodium phosphate/0.15 M potassium chloride, pH 7.4. […] For stability studies, prodrug (5 μM) was incubated in Caco-2 homogenate S9 fraction (0.5 mg protein per mL) for 60 min at 37° C. Concentrations of intact prodrug and released parent drug were determined at zero time and 60 minutes using LC/MS/MS.
Experimental Endpoint: Percent of Prodrug Remaining after 60 min. (%)

{"columns": ["Compound", "Experimental Result"],
 "data": [
  ["CP(=O)(O)CCCNC(=O)OCOC(=O)c1ccccc1 [Compound 195]", 91],
  ["CC(C)C(=O)OC(OC(=O)NCCCP(C)(=O)O)C(C)C (centres unmarked) [Compound 194]", 71],
  ["CC(OC(=O)NCCCP(C)(=O)O)OC(=O)C(C)C (centres unmarked) [Compound 111]", 82]
]}

1: CC(OC(=O)NCCCP(C)(=O)O)OC(=O)C1CCCCC1 (centres unmarked) [Compound 114]
2: CC(C)C(=O)OCOC(=O)NCCCP(C)(=O)O [Compound 115]
Sorting by Percent of Prodrug Remaining after 60 min. in descending order, would 1 or 2 appear first? Identify your pick by its label. 1

----------
- Assay Name: Prodrug in vitro metabolism, human liver S9
- Format: in vitro ADME
- Condition Info: Human Liver S9 (0.5 mg/mL), 2.0 μM substrate, NADPH, 37° C.
Experimental Endpoint: Percent of Prodrug Remaining after 60 min. (%)

Examples with answers:
{"columns": ["Compound", "Experimental Result"],
 "data": [
  ["CC(C)C(=O)OCOC(=O)NCCCP(C)(=O)O", 57],
  ["CC(C)C(=O)OC(OC(=O)NCCCP(C)(=O)O)C(C)C (centres unmarked)", 66],
  ["CP(=O)(O)CCCNC(=O)OCOC(=O)c1ccccc1", 64]
]}

1: CC(OC(=O)NCCCP(C)(=O)O)OC(=O)C1CCCCC1 (centres unmarked)
2: CC(OC(=O)NCCCP(C)(=O)O)OC(=O)C(C)C (centres unmarked)
When the recorded Percent of Prodrug Remaining after 60 min. values are compared, which is smaller: that of 1 or that of 2 ? Which one? Tell me its label. 1
(1: 43%, 2: 81%)

----------
- Test system: pancreatin
- Assay Name: Pancreatin stability
- Assay type: in vitro ADME, porcine
- Condition Info: 1% (w/v) pancreatin, 5 μM prodrug, pH 7.5, 37° C.
Experimental Endpoint: Percent of Prodrug Remaining after 60 min. (%)

The examples below pair each entry with its known result.
{"columns": ["Compound", "Experimental Result"],
 "data": [
  ["CC(OC(=O)NCCCP(C)(=O)O)OC(=O)C(C)C (centres unmarked)", 79],
  ["CC(C)C(=O)OCOC(=O)NCCCP(C)(=O)O", 20]
]}

I: CC(OC(=O)NCCCP(C)(=O)O)OC(=O)C1CCCCC1 (centres unmarked)
II: CC(C)C(=O)OC(OC(=O)NCCCP(C)(=O)O)C(C)C (centres unmarked)
III: CP(=O)(O)CCCNC(=O)OCOC(=O)c1ccccc1
Reorder the items by Percent of Prodrug Remaining after 60 min., least to greatest. Output the labels ranked as instructed. I, III, II
